Experiment: AUC in Sprague-Dawley rat at 5 mg/kg, po in presence of ritonavir
Type: ADME, organism-based
Set-up: dose 5 mg/kg, route oral
Details: plasma

{"Chemical string": "COC(=O)N[C@H](C(=O)N[C@@H](Cc1ccc(-c2ccccn2)cc1)C[C@H](O)[C@H](Cc1ccccc1)NC(=O)[C@@H](N1CCN(Cc2ccccc2OC)C1=O)C(C)(C)C)C(C)(C)C", "Units text": "ng·h/mL", "AUC": 9380}
{"Chemical string": "COC(=O)N[C@H](C(=O)N[C@@H](Cc1ccc(-c2ccccn2)cc1)C[C@H](O)[C@H](Cc1ccccc1)NC(=O)[C@@H](N1CCN(Cc2ccccc2)C1=O)C(C)(C)C)C(C)(C)C", "Units text": "ng·h/mL", "AUC": 3500}
{"Chemical string": "COC(=O)N[C@H](C(=O)N[C@@H](Cc1ccc(-c2ccccn2)cc1)[C@@H](O)C[C@H](Cc1ccccc1)NC(=O)[C@@H](N1CCN(Cc2cccc(C(C)(C)O)n2)C1=O)C(C)(C)C)C(C)(C)C", "Units text": "ng·h/mL", "AUC": 1820}
{"Chemical string": "COC(=O)N[C@H](C(=O)N[C@@H](Cc1ccc(-c2ccccn2)cc1)C[C@H](O)[C@H](Cc1ccccc1)NC(=O)[C@@H](N1CCN(Cc2csc(-c3cccnc3)n2)C1=O)C(C)(C)C)C(C)(C)C", "Units text": "ng·h/mL", "AUC": 120}
{"Chemical string": "COC(=O)N[C@H](C(=O)N[C@H](Cc1ccc(-c2ccccn2)cc1)C[C@H](O)[C@H](Cc1ccccc1)NC(=O)[C@@H](N1CCN(Cc2ccnc3ccccc23)C1=O)C(C)(C)C)C(C)(C)C", "Units text": "ng·h/mL", "AUC": 9200}
{"Chemical string": "COC(=O)N[C@H](C(=O)N[C@H](Cc1ccc(-c2ccccn2)cc1)C[C@H](O)[C@H](Cc1ccccc1)NC(=O)[C@@H](N1CCN(Cc2csc(C)n2)C1=O)C(C)(C)C)C(C)(C)C", "Units text": "ng·h/mL", "AUC": 1980}
{"Chemical string": "COC(=O)N[C@H](C(=O)N[C@@H](Cc1ccc(-c2ccccn2)cc1)C[C@H](O)[C@H](Cc1ccccc1)NC(=O)[C@@H](N1CCN(Cc2ccccc2N)C1=O)C(C)(C)C)C(C)(C)C", "Units text": "ng·h/mL", "AUC": 1250}

---

// reported AUC per item
Assay: AUC in dog at 5 mg/kg, po
Assay type: ADME, organism-based, Canis lupus familiaris
Set-up: dose 5 mg/kg, route oral
Conditions: plasma
Recorded endpoint: AUC (ng·h/mL)

{"Chemical string": "COC(=O)N[C@H](C(=O)N[C@H](Cc1ccc(-c2ccccn2)cc1)C[C@H](O)[C@H](Cc1ccccc1)NC(=O)[C@@H](N1CCN(Cc2cccc(C(C)(C)O)n2)C1=O)C(C)(C)C)C(C)(C)C", "Recorded value": 20}
{"Chemical string": "COC(=O)N[C@H](C(=O)N[C@@H](Cc1ccc(-c2ccccn2)cc1)C[C@H](O)[C@H](Cc1ccccc1)NC(=O)[C@@H](N1CCN(Cc2ccccc2)C1=O)C(C)(C)C)C(C)(C)C", "Recorded value": 210}
{"Chemical string": "CC(C)c1nc(CN(C)C(=O)N[C@H](C(=O)N[C@@H](Cc2ccccc2)C[C@H](O)[C@H](Cc2ccccc2)NC(=O)OCc2cncs2)C(C)C)cs1", "Recorded value": 8800}
